Below: a set of entries, each annotated with reported melting point.

Would you please look over these solved cases?
[[record]]
compound = "CCOC(=O)CCc1[nH]c2cccc3c2c1CC1C3CC(NC(=O)N(CC)CC)CN1C (stereo not given)"
readout_name = "melting point"
measurement = "160 to 161 °C"

[[record]]
compound = "COc1cc2c(c(N(C(C)=O)C(C)=O)c1)CC(C)O2 (stereo not given)"
readout_name = "melting point"
measurement = "56 to 57 °C"

[[record]]
compound = "Cn1nc(C(F)(F)F)n(-c2ccc(N)cc2Cl)c1=S"
readout_name = "melting point"
measurement = "145 to 147 °C"


For record CCc1cnc(-n2cc(CCCOc3c(CC(=O)O)cccc3OC)c(C(C)C)n2)nc1 the listed melting point is 103 to 104 °C

For record CCCCCOc1cc(C(=O)O)c2c(c1)C(=O)CC2 the listed melting point is 165 to 166 °C

For record CCOC(=O)/C=C/c1nc(COc2ccc(COc3nn(-c4ccccc4)cc3/C=C\c3csc(CC)n3)cc2OC)c(C)o1 the listed melting point is 95 to 96 °C

For record CCCCc1nn(-c2ccc([N+](=O)[O-])cc2C(F)(F)F)c(=O)[nH]1 the listed melting point is 126 to 128 °C

====

Below: a set of entries, each annotated with reported melting point.

Would you please look over these solved cases?
[[record]]
compound = "CCOC(Cn1nc(CC(=O)OC)c2ccccc2c1=O)OCC"
readout_name = "melting point"
measurement = "68 °C"

[[record]]
compound = "Cc1cccc(-c2ccc(C(=O)Nc3ccc4cc(CN5CCCC5)cnc4c3C)cc2)c1"
readout_name = "melting point"
measurement = "151 to 152 °C"

[[record]]
compound = "ICCOc1ccc(C2=C(c3ccccc3)CCCc3ccccc32)cc1"
readout_name = "melting point"
measurement = "154 to 156 °C"


For record O=C(OCc1ccccc1)N1CCN(CCN2C(=O)c3ccccc3C2=O)CC1 the listed melting point is 89.5 to 90.5 °C

For record COc1ccc2c(c1)C(=NOCCN1CCCC1)c1c-2cnc2ccccc12 the listed melting point is 85 to 86 °C

For record O=c1[nH]c2cc3[nH]c(=O)oc3cc2[nH]1 the listed melting point is > 360 °C

For record CCOC(=O)c1[nH]c(I)c(C)c1CC the listed melting point is 122 to 124 °C

For record COc1ccc(CN2CCc3cc(OCc4ccccc4)c(OC)cc3C2)cc1OC the listed melting point is 98 to 99 °C

For record CC(CS)C(=O)N(CC(=O)O)CC1CCCO1 (configuration not stated) the listed melting point is 128 to 130 °C

For record CN(C)c1ccc2nc(N)c(C#N)c(Cl)c2c1 the listed melting point is 285 °C

For record Cc1c(C)c2ccc(OCc3ccccc3)cc2oc1=O the listed melting point is 131 to 135 °C

For record COc1ccccc1/C=C/C(=O)/C=C/c1ccccc1OC the listed melting point is 124 to 126 °C

For record O=C1Nc2ccc(Cl)cc2N2CCNCC12 (configuration not stated) the listed melting point is 300 to 303 °C

For record CC1=C(C)C(=O)C(CC[C@](C)(O)CO)=C(C)C1=O the listed melting point is 109 to 112 °C

For record COC(=O)c1cccc(Sc2ccccc2)c1S(C)(=O)=O the listed melting point is 151 °C

For record CC1CCC(=NNc2ccccc2)c2ncc(C(N)=O)c(=O)n21 (configuration not stated) the listed melting point is 246 to 247 °C

====

Below: a set of entries, each annotated with reported melting point.

For record O=C(O)c1ccc(COCc2csc3nc(C(=O)NCc4cccnc4)[nH]c(=O)c23)cc1 the listed melting point is 309 to 311 °C

For record CC(C)(C)OC(=O)N1CCC(CCN2C(=O)C3(COc4cc5c(cc43)OCO5)c3ccccc32)CC1 (stereo not given) the listed melting point is 173 to 175 °C

====

Below: a set of entries, each annotated with reported melting point.

Would you please look over these solved cases?
[[record]]
molecule = "COc1ccc(C2=NN(C3CCN(C(=O)CCCOc4ccc5[nH]c(=O)ccc5c4)CC3)C(=O)CC2)cc1OC"
measurement = "169 to 171 °C"

[[record]]
molecule = "CCOC(=O)C(=O)c1c[nH]c2c1ccc1c3ccccc3[nH]c12"
measurement = "> 295 °C"

[[record]]
molecule = "CN(C)CCOc1ccc2c(c1)Cc1cc(OCCN(C)C)ccc1O2"
measurement = "85 to 86.5 °C"

[[record]]
molecule = "CC(n1cnc2cc(-c3ccc(F)cc3)sc2c1=O)C(O)(Cn1cncn1)c1ccc(F)cc1F (stereo not given)"
measurement = "118 to 127 °C"


// next entry
For record CNC(=O)c1cc2ccccc2c(-c2ccccc2I)n1 the listed melting point is 167 to 168 °C

====

Below: a set of entries, each annotated with reported melting point.

Would you please look over these solved cases?
[[record]]
molecule = "CC(C)(C)OC(=O)Nc1cc(Br)cc(C(F)(F)F)c1"
measurement = "113 to 115 °C"

[[record]]
molecule = "C#CCOc1ccc(NCc2ccccc2)c(C(=O)c2ccc(C3CC3)cc2)c1"
measurement = "116 to 118 °C"

[[record]]
molecule = "O=[N+]([O-])c1ccc2c(c1)C(c1ccccc1Cl)=NCc1nc(CO)cn1-2"
measurement = "173 to 174 °C"


For record CCC(CC)Nc1nnc(-c2ccccc2)c2ccccc12 the listed melting point is 210 °C

For record COC(=O)CC(O)(c1ccccc1)c1ccc2nc(N)n(S(=O)(=O)C(C)C)c2c1 (centres undefined) the listed melting point is 147 to 149 °C

For record Cc1c(Cl)cccc1S(=O)(=O)Nc1nc(CC(=O)Oc2ccccc2)cs1 the listed melting point is 189 °C

For record CC(c1oc2ccccc2c(=O)c1-c1cccc(F)c1)n1nc(-c2ccc(O)c(O)c2)c2c(N)ncnc21 (centres undefined) the listed melting point is 193 to 195 °C

For record C=C(C)C(=O)Oc1ccc(C(=O)c2ccccc2)cc1 the listed melting point is 69.5 to 70.5 °C

For record CC(C)=CCCC(C)=CCOc1ccc(C(=O)NCC(=O)Nc2ccccn2)cc1 the listed melting point is 105 to 106 °C

For record CN1C(=O)CCC2(C)c3ccc(Sc4ccc5ccccc5n4)cc3CCC12 (single isomer, unassigned; (+)) the listed melting point is 175 to 177 °C

====

READOUT NAME: melting point

Would you please look over these solved cases?
[[record]]
molecule = "Cc1ccc(-c2nnc(N3CCC(O)C3)nc2-c2ccc(C)cc2)cc1 (stereo not given)"
measurement = "147 to 150 °C"

[[record]]
molecule = "C=C(C)C(=O)OCCCOc1ccc(-c2cc(OC(=O)C(=C)C)cc(-c3ccc(OCCCOC(=O)C(=C)C)cc3)c2)cc1"
measurement = "49 °C"

[[record]]
molecule = "COc1ccc(CNc2ncnc3c2ncn3C2OC(Cn3cc(Cc4ccccc4)nn3)C(O)C2O)cc1 (stereo not given)"
measurement = "123 to 124 °C"

[[record]]
molecule = "COC(=O)c1csc(C(=O)CBr)c1OC(=O)c1ccccc1"
measurement = "115 to 118 °C"

[[record]]
molecule = "CC(C)Sc1ccc(NC(=O)c2cc(Cl)ccc2NS(=O)(=O)c2ccc(Cl)cc2)cc1"
measurement = "168 to 169 °C"

[[record]]
molecule = "O=C(C(=CO)c1ccccc1)c1ccccc1"
measurement = "110 to 114 °C"

[[record]]
molecule = "CC(=NO)c1noc2ccccc12"
measurement = "193 to 195 °C"

[[record]]
molecule = "O=S(=O)(c1ccc(Br)cc1)N1CCC(CN2CCC(c3ccncc3)CC2)CC1"
measurement = "163 to 164 °C"

[[record]]
molecule = "O=C1CCN(c2ccc(CNC(=O)c3cccnc3Oc3ccc(F)cc3)cc2)CC1"
measurement = "138 to 139 °C"

[[record]]
molecule = "COc1ncccc1-c1ccc(Cl)c(OC2SCC(O)C(O)C2O)c1 (stereo not given)"
measurement = "119 °C"


For record COc1ccc(Nc2ccccc2)c2c1c(CCN(C)C)cn2C the listed melting point is 158 to 160 °C

For record CNc1cc2cnnn2c(C)n1 the listed melting point is 162 to 164 °C

====

READOUT NAME: melting point

[[record]]
compound = "CN(C)C1(c2ccccc2)CCC(CNC(=O)NCCc2c[nH]c3ccc(F)cc23)CC1 (centres undefined)"
readout_name = "melting point"
measurement = "70 to 73 °C"


For record CCCC(=O)NC1=NN(c2cccc(Cl)c2)CC1 the listed melting point is 168 to 169 °C

For record CCCCCCCCCCCC(=O)N[C@H](CC(=O)c1ccc(C)cc1)C(=O)OCC the listed melting point is 60 to 60.5 °C

For record Cc1c(C)c2c(c(C)c1N)CC(C)(CN1CCN(C(=O)c3ccc(Cl)cc3)CC1)O2 (centres undefined) the listed melting point is 136 to 138 °C

For record CCOCCn1c(NC2CCN(CCC3(c4ccccc4)CCN(C(=O)c4cc(OC)c(OC)c(OC)c4)C3)CC2)nc2ccccc21 (single isomer, unassigned; (-)) the listed melting point is 106 to 117 °C

For record CC(=O)Oc1cc(OCC(F)(F)C(F)(F)F)ccc1C(=O)O the listed melting point is 126 °C

Reference for the values: a melting point compilation (Tetko et al.; mined from patent text by program, amines drawn as free bases though some values may be those of a salt)
